Target: Serine/threonine-protein kinase TBK1 (Homo sapiens) (UniProt Q9UHD2);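 note: values are mean inhibition of TBK1, screened as part of the GSK published kinase inhibitor set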
Sequence (whole entry): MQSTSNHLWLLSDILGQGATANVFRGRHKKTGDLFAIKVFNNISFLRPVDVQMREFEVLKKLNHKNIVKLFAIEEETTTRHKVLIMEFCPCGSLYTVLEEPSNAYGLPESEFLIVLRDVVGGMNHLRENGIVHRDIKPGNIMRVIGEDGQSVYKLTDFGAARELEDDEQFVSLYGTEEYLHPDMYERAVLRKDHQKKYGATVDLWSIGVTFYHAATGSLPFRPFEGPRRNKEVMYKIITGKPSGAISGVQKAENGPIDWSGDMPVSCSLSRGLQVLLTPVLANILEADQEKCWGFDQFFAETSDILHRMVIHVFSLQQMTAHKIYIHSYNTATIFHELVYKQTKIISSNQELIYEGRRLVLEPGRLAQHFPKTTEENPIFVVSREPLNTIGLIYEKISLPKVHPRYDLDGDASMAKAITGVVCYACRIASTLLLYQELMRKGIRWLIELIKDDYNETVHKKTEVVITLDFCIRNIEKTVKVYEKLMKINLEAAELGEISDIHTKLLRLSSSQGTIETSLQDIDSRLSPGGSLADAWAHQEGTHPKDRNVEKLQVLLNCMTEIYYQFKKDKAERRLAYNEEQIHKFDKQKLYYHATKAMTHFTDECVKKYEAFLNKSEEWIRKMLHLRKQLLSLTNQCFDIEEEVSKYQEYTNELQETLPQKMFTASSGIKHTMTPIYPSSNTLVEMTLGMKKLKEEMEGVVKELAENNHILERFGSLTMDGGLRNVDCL
Details: at 1 µM
Assign class by inhibition: not lower than 5% means Yes; lower than 5% means No.

>>> assigned_label("O=C1NC(=O)C(c2cccc(Cl)c2)=C1Nc1ccc(O)c(Cl)c1")
"Yes"
>>> assigned_label("c1cnn2ncc(-c3ccnc(Nc4ccc5c(c4)OCCO5)n3)c2c1")
"Yes"
>>> assigned_label("COc1cc2c(cc1Nc1nc(N3CCc4ccccc43)c3cc[nH]c3n1)N(C(=O)CN(C)C)CC2")
"Yes"
>>> assigned_label("CCn1c(-c2nonc2N)nc2cncc(C(=O)N3CCNCC3)c21")
"Yes"
>>> assigned_label("COc1ccccc1Nc1ncc(-c2ccccc2)o1")
"No"

Query: # bool: inhibition of Nc1nc(-c2ccc3c(c2)C(=Cc2cc(Br)c(O)c(Br)c2)C(=O)N3)cs1 >= 5%
Reply: No

Query: Moving on to the next compound: Cc1nn(C)c2cc(N(C)c3ccnc(Nc4cccc(S(N)(=O)=O)c4)n3)ccc12
Reply: Yes

Query: Moving on to the next compound: COc1ccc(-c2nn3ncccc3c2-c2ccnc(Nc3ccc(Cl)c(C(F)(F)F)c3)n2)cc1
Reply: No

Query: Moving on to the next compound: O=C(Nc1n[nH]c2nc(-c3ccco3)c(Br)cc12)C1CC1
Reply: No
